test: Metabolic stability in dog liver microsomes after 30 mins; type: ADME, Canis lupus familiaris, Microsome; conditions: read-out: Stability
attributeMeasured: remaining at 0.5 h (%)
All answers are understood in %, so give the number only.

Quick one: remaining at 0.5 h for CC12CCCC(/C=C/C(=O)NS(=O)(=O)c3cc(F)c(F)cc3F)=C1N(Cc1ccc(F)c(F)c1)C(=O)C2 (stereo unspecified) ?
87

====

assay: Metabolic stability in monkey liver microsomes after 30 mins; type: ADME, Macaca mulatta, Microsome; conditions: rhesus monkey, read-out: Stability
attributeMeasured: remaining at 0.5 h (%)
All answers are understood in %, so give the number only.

Quick one: remaining at 0.5 h for CC12CCCC(/C=C/C(=O)NS(=O)(=O)c3cc(F)c(F)cc3F)=C1N(Cc1ccc(F)c(F)c1)C(=O)C2 (stereo unspecified) ?
54

====

target: Prostaglandin E2 receptor EP3 subtype (Homo sapiens); test: Displacement of [3H]PGE2 from human EP3 receptor
Sequence (P43115 whole entry): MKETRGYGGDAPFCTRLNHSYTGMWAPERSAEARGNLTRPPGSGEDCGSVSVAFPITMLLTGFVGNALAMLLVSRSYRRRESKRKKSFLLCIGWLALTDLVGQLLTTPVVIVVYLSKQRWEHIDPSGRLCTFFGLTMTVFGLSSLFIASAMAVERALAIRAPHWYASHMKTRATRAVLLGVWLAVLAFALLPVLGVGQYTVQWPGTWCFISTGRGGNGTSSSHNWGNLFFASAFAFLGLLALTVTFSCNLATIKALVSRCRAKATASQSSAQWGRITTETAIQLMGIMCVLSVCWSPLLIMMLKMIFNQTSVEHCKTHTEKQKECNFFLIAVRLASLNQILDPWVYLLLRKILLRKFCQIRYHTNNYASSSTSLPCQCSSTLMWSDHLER
Classes by IC50: group A = under 6 nM, group B = from 6 nM up to 10 nM, group C = 10 nM and over

Where would CC12CCCC(/C=C/C(=O)NS(=O)(=O)c3cc(Cl)c(Cl)s3)=C1N(Cc1ccc(F)c(F)c1)C(=O)C2 (stereo unspecified) land among the classes by reported IC50?
group A

Also need CC12CCCC(/C=C/C(=O)NS(=O)(=O)c3cccs3)=C1N(Cc1ccc(Cl)cc1Cl)C(=O)C2 (stereo unspecified) , thanks.
group C

Also need CC12CCCC(/C=C/C(=O)NS(=O)(=O)c3cc(Cl)c(Cl)s3)=C1N(Cc1cccc(Cl)c1Cl)C(=O)C2 (stereo unspecified) , thanks.
group A

Also need COC(=O)C12CCCC(/C=C/C(=O)NS(=O)(=O)c3ccc(F)c(F)c3)=C1N(Cc1ccc(Cl)cc1Cl)C(=O)C2 (stereo unspecified) , thanks.
group C

Also need CC12CCCC(/C=C/C(=O)NS(=O)(=O)c3cc(Cl)c(Cl)s3)=C1N(Cc1ccc3ccccc3c1)C(=O)C2 (stereo unspecified) , thanks.
group B

Also need CC12CCCC(/C=C/C(=O)NS(=O)(=O)c3cc(F)c(F)cc3F)=C1N(Cc1ccc(Cl)cc1Cl)C(=O)C2 (stereo unspecified) , thanks.
group A

Also need COc1cccc(CN2C(=O)CC3(C)CCCC(/C=C/C(=O)NS(=O)(=O)c4cc(Cl)c(Cl)s4)=C23)c1 (stereo unspecified) , thanks.
group B

Also need COC(=O)C12CCCC(/C=C/C(=O)NS(=O)(=O)c3cc(Cl)c(Cl)s3)=C1N(Cc1ccc(F)c(F)c1)C(=O)C2 (stereo unspecified) , thanks.
group C

Also need CC12CCCC(/C=C/C(=O)NS(=O)(=O)c3ccc(F)c(F)c3)=C1N(Cc1ccc(F)cc1)C(=O)C2 (stereo unspecified) , thanks.
group A

Also need CC12CCCC(/C=C/C(=O)NS(=O)(=O)c3cc(F)c(F)cc3F)=C1N(Cc1cccc(Cl)c1Cl)C(=O)C2 (stereo unspecified) , thanks.
group A

Also need CC12CCCC(/C=C/C(=O)NS(=O)(=O)c3cc(Cl)c(Cl)s3)=C1N(Cc1cccc(F)c1)C(=O)C2 (stereo unspecified) , thanks.
group B

Also need COC(=O)C12CCCC(/C=C/C(=O)NS(=O)(=O)c3cc(F)c(F)cc3F)=C1N(Cc1ccc(Cl)cc1Cl)C(=O)C2 (stereo unspecified) , thanks.
group C

Also need COc1cccc(CN2C(=O)CC3(C)CCCC(/C=C/C(=O)NS(=O)(=O)c4cc(F)c(F)cc4F)=C23)c1 (stereo unspecified) , thanks.
group A

Also need COc1cccc(CN2C(=O)CC3(C)CCCC(/C=C/C(=O)NS(=O)(=O)c4ccc(F)c(F)c4)=C23)c1 (stereo unspecified) , thanks.
group C

Also need CC12CCCC(/C=C/C(=O)NS(=O)(=O)c3cc(Cl)cc(Cl)c3)=C1N(Cc1ccc(F)c(F)c1)C(=O)C2 (stereo unspecified) , thanks.
group A

Data provenance is ChEMBL document CHEMBL1143334.
